Parameter: SPOT peptide array binding signal intensity. Scope: all listed entries.
target: ScHse1; test: SPOT peptide array binding signal intensity (averaged, normalized) (arbitrary units (background-subtracted, floor 0; scale differs between SH3 domains)); higher = stronger binding of the SH3 domain to the peptide
Result type: SPOT peptide array binding signal intensity

* GRSRLFPHSPLGRSS | 2660
* VPPVPLPFGIPPFPM | 47
* LLIRWLILMPLVGSR | 2940
